test system: NCI-H23 lung; test: NCI-60 one-dose screen, 48 h; details: 10 µM unless noted
Compounds without any hit were thinned out: in the full panel of roughly 83,000, 20% have a hit. Activity calls are given as the source filed them. The calls were made as follows: active = growth percent below 10; inactive = the rest.
Parameter call: string, one of 1 for active, -1 for inactive

Outcome logged for COc1cc(CC(=O)c2ccc(O)c(OC)c2)ccc1O in this assay:
-1

Outcome logged for Cc1cc(Cl)nc(N(CCNc2ccnc3cc(Cl)ccc23)Cc2ccccn2)n1 in this assay:
-1

Outcome logged for O=C(O)c1ccc2c(c1)C(=O)N(Cc1ccccc1)C2=O in this assay:
-1

Outcome logged for CN(C)CCC(=O)c1ccc([N+](=O)[O-])cc1 in this assay:
-1

Outcome logged for CCOC(=O)Nc1ccc(-c2ccc3c(c2)NC(=O)/C3=C\c2ccc[nH]2)cc1 in this assay:
-1

Outcome logged for Cc1nc2sccn2c1-c1nc2sccn2c1/C=C1/C(=O)Nc2ccccc21 in this assay:
-1

Outcome logged for C=CCN1C(=O)/C(=C/C(=O)OC)S/C1=N\NC(=O)c1cc2ccc1/C=C\c1ccc(cc1)/C=C\2 in this assay:
-1

Outcome logged for C=C1C(=O)O[C@H]2[C@H]1CC/C(C(=O)NCCCCCNC(=O)/C1=C/CC[C@@]3(C)O[C@H]3[C@H]3OC(=O)C(=C)[C@@H]3CC1)=C\CC[C@@]1(C)O[C@@H]21 in this assay:
-1

Outcome logged for N/C(=N\C(N)=N\c1nc2ccccc2s1)c1cccc(Cl)c1 in this assay:
-1

Outcome logged for NC(=NCCCOc1ccc(F)cc1)Nc1ccc(I)cc1 in this assay:
-1

Outcome logged for CN(C)c1ccc(Nc2c3ccccc3nc3cc(NC(=O)CCN4CCCC4)ccc23)cc1 in this assay:
1

Outcome logged for O=C(NNc1nc2c(F)cccc2n2cccc12)c1cnccn1 in this assay:
-1

Outcome logged for COc1cc2cc(CN3CCN(c4nccc(-c5ccc6ccccc6c5)n4)CC3)c(=O)[nH]c2cc1OC in this assay:
-1

Outcome logged for Cc1ccc(/C=C(/C#N)n2nnc3cccc(F)c32)cc1 in this assay:
1

Outcome logged for COc1cc2nc(-c3ccc(C(F)(F)F)cc3)cc(OCCCN3CCOCC3)c2cc1OC in this assay:
-1

Outcome logged for CC(C)N1C(=O)S/C(=C2/SC(=O)N(C(C)C)C2=O)C1=O in this assay:
-1

Outcome logged for Cc1cnc(C(=O)Nc2nc3ccc(S(=O)(=O)Nc4ccc(C(C)(C)C)cc4)cc3[nH]2)cn1 in this assay:
-1

Outcome logged for O=C(/C=C/c1ccc(F)cc1)c1ccc(NC(=O)N2CCN(c3cc4c(cc3F)c(=O)c(C(=O)O)cn4C3CC3)CC2)cc1 in this assay:
-1

====

Test system: DU-145 prostate
Experiment: NCI-60 one-dose screen, 48 h (100 = growth as untreated, 0 = no growth, -100 = all killed)
Conditions: 10 µM unless noted
Protocol: Cells are grown in 96 well plates and exposed to the test compound for 48 hours. Compounds are tested at a single concentration, which is 10^-5 M for most compounds. The reported endpoint is percent growth (GI% or GIPRCNT), where numbers from 0 - 100% represent growth inhibition, and numbers from -100% - 0 represent cell death. For example, a value of 40 represents 60% growth inhibition. A value of 0 means no net growth occurred over the course of the experiment. […]
Compounds without any hit were thinned out: in the full panel of roughly 83,000, 20% have a hit.
readout-name: growth (%)
Quick note: give the figure in %, leave out the unit.

Which value of growth has been reported for CC(=O)Nc1ccc(-c2ccc3c(c2)NC(=O)/C3=C\c2ccc[nH]2)cc1 in the records?
72

Which value of growth has been reported for COc1ccc2c(c1)oc1c(C)c3c(c(C)c12)C(=O)N(N)C3=O in the records?
27.9

Which value of growth has been reported for CCN(CC)CCOc1ccc(NC(=O)C(C(C)C)N2C(=O)/C(=C/c3ccc(Br)cc3)SC2=S)cc1 (stereo not given) in the records?
73

Which value of growth has been reported for COc1ccc(CC(C)=C(c2ccc(OCCN3CCCCCC3)cc2)c2ccc(OCCN3CCCCCC3)cc2)cc1 in the records?
-96.2

Which value of growth has been reported for COc1ccc(/C=C/c2nc(Nc3ccc(S(=O)(=O)NC(C)=O)cc3)c3ccccc3n2)cc1 in the records?
69.5

Which value of growth has been reported for CN(C)CC(O)c1ccc(/C=C/c2ccc(Cl)cc2)cc1 (stereo not given) in the records?
-88.8

Which value of growth has been reported for CC(=O)[C@H]1CCC/C=C/[C@@H]2C[C@H](O)C[C@H]2[C@H](O)/C=C/C(=O)O1 in the records?
25.4

Which value of growth has been reported for CN[C@@H](C)C(=O)N[C@H]1CCS[C@H]2CC(C)(C)[C@@H](C(=O)N[C@H]3c4ccccc4C[C@H]3OCC#CC#CCO[C@@H]3Cc4ccccc4[C@@H]3NC(=O)[C@H]3N4C(=O)[C@@H](NC(=O)[C@H](C)NC)CCS[C@H]4CC3(C)C)N2C1=O in the records?
101

Which value of growth has been reported for COc1cc2c(-c3cc4c(cc3CNCCc3ccc5c(c3)OCO5)OCO4)cccc2c(OC)c1O in the records?
95.8

Which value of growth has been reported for CCN1C(=O)N(CC)C2Nn3c(s/c(=C\c4ccc(OC)cc4)c3=O)=NC21 (stereo not given) in the records?
67.3

Which value of growth has been reported for CCOC(=O)Nc1ccc(-c2ccc3c(c2)NC(=O)/C3=C\c2ccc[nH]2)cc1 in the records?
110

Which value of growth has been reported for COc1ccccc1NS(=O)(=O)c1cccc(C(=O)Nc2ccc(Br)cc2)c1 in the records?
52.1

Which value of growth has been reported for C=C(C)[C@@H]1CC[C@]2(CN)CC[C@]3(C)[C@H](CC[C@@H]4[C@@]5(C)CCCNC(C)(C)[C@@H]5CC[C@]43C)[C@@H]12 in the records?
-53.5

Which value of growth has been reported for COc1ccc(C(=O)C2C(C#N)C(C#N)C3c4ccccc4C=CN23)cc1 (stereo not given) in the records?
103

Which value of growth has been reported for CC1(C)NCCC[C@]2(C)[C@H]3CC[C@@H]4[C@H]5[C@H](C(=O)/C=C/c6ccco6)CC[C@]5(CO)CC[C@@]4(C)[C@]3(C)CC[C@@H]12 in the records?
97.4

Which value of growth has been reported for O=C(/C=C(/C=C/c1csc2ccccc12)OB(F)F)/C=C/c1csc2ccccc12 in the records?
28.5

Which value of growth has been reported for CC(C)(C)c1cc(/C=N/NC(=O)c2ccccc2NC(=O)c2cccs2)c(O)c(C(C)(C)C)c1 in the records?
32.5

Which value of growth has been reported for COc1ccc(OC)c(CCn2cncc2-c2c[nH]c3ccccc23)c1 in the records?
88.4

Which value of growth has been reported for c1ccc(Cn2cnc3ccc(-c4nc(-c5ccc6c(c5)ncn6C5CCCCC5)cn5ccnc45)cc32)cc1 in the records?
-28.2

Which value of growth has been reported for O=C1OC(Cc2ccccc2)C1c1ccccc1 (stereo not given) in the records?
110

Which value of growth has been reported for COc1cc(/C=N/NC(=O)c2cnn3c2NC(c2ccccc2)C3)ccc1OCc1ccccc1 (stereo not given) in the records?
6.15

Which value of growth has been reported for COc1ccc(C(=O)Cn2c(C(=O)c3ccccc3)nc3ccccc32)cc1 in the records?
36.7

Which value of growth has been reported for COc1cc2c3c(c4c5ccccc5[nH]c4c2c(OC)c1OC)C(=O)N(CCN1CCOCC1)C3=O in the records?
66

Which value of growth has been reported for C=C(C)[C@@H]1CC[C@]2(C(=O)N3CCN(C)CC3)CC[C@]3(C)[C@H](CC[C@@H]4[C@@]5(C)CC[C@H](O)C(C)(C)[C@@H]5CC[C@]43C)[C@@H]12 in the records?
-57.3

Which value of growth has been reported for COc1ccc(/C=C(\C#N)n2nc3cccc(F)c3n2)cc1 in the records?
103

Which value of growth has been reported for COc1ccc(C(C)=O)c(OC)c1 in the records?
113

Which value of growth has been reported for Cc1nc2sccn2c1-c1cn2ccsc2n1 in the records?
76.3

Which value of growth has been reported for NC1=NN=C(N)C1=Cc1cc2ccccc2n2nnnc12 in the records?
100

Which value of growth has been reported for O=C1c2ccc3c4c(ccc(c24)C(=O)N1CCCNCc1ccccc1Cl)C(=O)N(CCCNCc1ccccc1Cl)C3=O in the records?
-86.5

Which value of growth has been reported for COc1ccc(/C=C/c2nc(Nc3ccc(S(=O)(=O)Nc4nc(C)cc(C)n4)cc3)c3ccccc3n2)cc1 in the records?
71.3

Which value of growth has been reported for CCCCCN1C=C/C(=C\C(=O)N2CCCc3ccccc32)c2ccccc21 in the records?
94.1

Which value of growth has been reported for O=S(=O)(NCCCNc1nccc(-c2c(-c3cccc(F)c3)nc3sccn23)n1)c1cccc(F)c1 in the records?
55.5

Which value of growth has been reported for COC(=O)c1ccc2c(c1)[n+](=O)c(C(C)=O)c(C(F)(F)F)n2[O-] in the records?
1.28

Which value of growth has been reported for O=C(Nc1ccc(NC(=O)c2cc(=O)[nH]c3ccccc23)cc1)Nc1cccc(Cl)c1 in the records?
105

Which value of growth has been reported for Cc1nn(-c2ccccc2)c(Cl)c1/C=C/C(=O)c1ccc(F)cc1 in the records?
104
